Quick reference for T/C among some compounds
System: BDF1 mice, colon carcinoma 38 sc, T/C %
Experiment: NCI In Vivo Anticancer Drug Screen. Data for tumor model Colon Carcinoma 38 (subcutaneous) in B6D2F1 (BDF1) mice
Details: endpoint: median tumor weight (est.); dose: 50.0 mg/kg/injection; schedule: Q07DX002 (ip); vehicle: water; higher = larger tumour
Experimental: The antitumor activity of compounds was measured in mice bearing transplantable tumors. Survival or tumor size were measured and the results are expressed as the measurement made in the treated group (T) divided by the measurement made in the vehicle treated control group (C). The tumor model used in this assay is Colon Carcinoma 38 (subcutaneous) in B6D2F1 (BDF1) mice
Results filed as inconclusive are left out.
assay metric: T/C

>>> observed_measurement("O=C(NO)c1ccc(O)c(O)c1")
"88 % of control"
>>> observed_measurement("O=C(O)CSc1nc(-c2ccccc2)c(-c2ccccc2)n1-c1ccccn1")
"112 % of control"
>>> observed_measurement("NC(=O)c1c[se]c(C2OC(CO)C(O)C2O)n1 (stereo unspecified)")
"74 % of control"
>>> observed_measurement("Nc1n[n+](-c2ccc(Cl)cc2)no1")
"119 % of control"
>>> observed_measurement("COc1cccc2c1C(=O)c1c(O)c3c(c(O)c1C2=O)C[C@@](O)(C(O)CO)C[C@@H]3OC1CC(N(Cc2ccccc2)Cc2ccccc2)C(O)C(C)O1 (stereo partly specified)")
"36 % of control"
>>> observed_measurement("O=C(O)C1CSCN1 (stereo unspecified)")
"87 % of control"

---

tested on: BDF1 mice, colon carcinoma 38 sc, T/C %; test: NCI In Vivo Anticancer Drug Screen. Data for tumor model Colon Carcinoma 38 (subcutaneous) in B6D2F1 (BDF1) mice; details: endpoint: median tumor weight (est.); dose: 12.5 mg/kg/injection; schedule: Q07DX002 (ip); vehicle: Klucel (hydroxypropylcellulose) (HPC); higher = larger tumour
Records with an inconclusive call do not appear.
assay metric: T/C

>>> observed_measurement("Cn1c(=O)c2ncnnc2n(C)c1=O")
"78 % of control"
>>> observed_measurement("CNC(=O)OCc1c(COC(=O)NC)c(C)n(-c2ccc(OC)cc2)c1C")
"69 % of control"
>>> observed_measurement("CCN(CC)c1ccc2cc(-c3nc4ccccc4n3C)c(=O)oc2c1")
"112 % of control"
>>> observed_measurement("COc1ccc(Cl)[n+]([O-])n1")
"87 % of control"

---

compounds and their reported T/C
system: BDF1 mice, colon carcinoma 38 sc, T/C %; assay: NCI In Vivo Anticancer Drug Screen. Data for tumor model Colon Carcinoma 38 (subcutaneous) in B6D2F1 (BDF1) mice; conditions: endpoint: median tumor weight (est.); dose: 0.5 mg/kg/injection; schedule: Q07DX002 (ip); vehicle: saline; higher = larger tumour
Results filed as inconclusive are left out.
assay metric: T/C

>>> observed_measurement("Nc1ncn(C2CC(O)C(CO)O2)c(=O)n1 (centres undefined)")
"90 % of control"
>>> observed_measurement("CC1OC(OC2CC(O)(C(=O)CO)Cc3c(O)c4c(c(O)c32)C(=O)c2ccccc2C4=O)CC(N)C1O (centres undefined)")
"104 % of control"
>>> observed_measurement("C/C=C1\\C[C@@H]2C(OC)Nc3cc(O)c(OC)cc3C(=O)N2C1 (some centres undefined)")
"102 % of control"
>>> observed_measurement("CCCCCC(O)C1C(=O)OC(C)C(O)/C=C/C=C/C=C/C=C/C=C(\\C)C(O)C(O)C(O)CC(O)CC(O)CC(O)CC(O)CC1O (centres undefined)")
"92 % of control"

Values were extracted from PubChem BioAssay AID212.
